Attribution: patent US20190225692A1

target: T1, HLA-A2/E7 (11-19) tetramer (human; HPV 16); assay: tetramer flow cytometry; transfected 1:1 CD4+ and CD4+/CD8+ Jurkat-derived cells;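 note: cells transiently transfected with TCR plasmids, stained 48 h later with HLA-A*02:01 peptide-MHC tetramer plus anti-CD8 antibody, read by flow cytometry to assess CD8-independent tetramer binding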
T1 construct: also called E7(11-19) peptide-MHC tetramer; E7 (11-19)-loaded tetramer
Param label: returns condition met when % cells in E7 tet+/CD8+ quadrant < 5%, returns condition not met otherwise, including exact equality.

// known answers, use as guide
binder: TCR 43 (codon optimized, cysteine modified version) (TCR, V domains shown) V domain 1: QKEVEQNSGPLSVPEGAIASLNCTYSDRGSQSFFWYRQYSGKSPELIMFIYSNGDKEDGRFTAQLNKASQYVSLLIRDSQPSDSATYLCAVNVPTSGTYKYIFGTGTRLKVLA V domain 2: EPEVTQTPSHQVTQMGQEVILRCVPISNHLYFYWYRQILGQKVEFLVSFYNNEISEKSEIFDDQFSVERPDGSNFTLKIRSTKLEDSAMYFCASTPRDSYEQYFGPGTRLTVTE
group-label: condition met
--
binder: TCR 31 (codon optimized, cysteine modified version) (TCR, V domains shown) V domain 1: DQQVKQNSPSLSVQEGRISILNCDYTNSMFDYFLWYKKYPAEGPTFLISISSIKDKNEDGRFTVFLNKSAKHLSLHIVPSQPGDSAVYFCAASERGTYKYIFGTGTRLKVLA V domain 2: GAGVSQSPSNKVTEKGKDVELRCDPISGHTALYWYRQSLGQGLEFLIYFQGNSAPDKSGLPSDRFSAERTGGSVSTLTIQRTQQEDSAVYLCASSRFLGSTDTQYFGPGTRLTVLE
group-label: condition met
--
binder: TCR 34 (codon optimized, cysteine modified version) (TCR, V domains shown) V domain 1: ELKVEQNPLFLSMQEGKNYTIYCNYSTTSDRLYWYRQDPGKSLESLFVLLSNGAVKQEGRLMASLDTKARLSTLHITAAVHDLSATYFCAVSGTYKYIFGTGTRLKVLA V domain 2: ETGVTQSPTHLIKTRGQQVTLRCSSQSGHNTVSWYQQALGQGPQFIFQYYREEENGRGNFPPRFSGLQFPNYSSELNVNALELDDSALYLCASSSYAGSYEQYFGPGTRLTVTE
group-label: condition not met
--
binder: TCR 44 (codon optimized, cysteine modified version) (TCR, V domains shown) V domain 1: GQNIDQPTEMTATEGAIVQINCTYQTSGFNGLFWYQQHAGEAPTFLSYNVLDGLEEKGRFSSFLSRSKGYSYLLLKELQMKDSASYLCAQYSGGYQKVTFGTGTKLQVIP V domain 2: DSGVTQTPKHLITATGQRVTLRCSPRSGDLSVYWYQQSLDQGLQFLIQYYNGEERAKGNILERFSAQQFPDLHSELNLSSLELGDSALYFCASSGTPDTQYFGPGTRLTVLE
group-label: condition met

Query string: Does this binder meet the criterion % cells in E7 tet+/CD8+ quadrant < 5%? TCR 37 (codon optimized, cysteine modified version) (TCR, V domains shown) V domain 1: ELKVEQNPLFLSMQEGKNYTIYCNYSTTSDRLYWYRQDPGKSLESLFVLLSNGAVKQEGRLMASLDTKARLSTLHITAAVHDLSATYFCAGYSGAGSYQLTFGKGTKLSVIP V domain 2: GAGVSQSPRYKVAKRGQDVALRCDPISGHVSLFWYQQALGQGPEFLTYFQNEAQLDKSGLPSDRFFAERPEGSVSTLKIQRTQQEDSAVYLCASSLLLGAYGYTFGSGTRLTVVE
Result string: condition not met
